All figures here come from patent US8247211B2.

system: Streptococcus sp.; assay: In vitro antibacterial evaluation: minimum inhibitory concentration (MIC), broth dilution method; assay type: cell-based; settings: Streptococcus pneumoniae (ATCC 6301); 18 hours at 35° C.
property-name: MIC Streptococcus pneumoniae (ATCC 6301)

molecule | measured-result
CC(c1ccccc1)C1NC(=O)CNC(=O)C(CO)NC(=O)C(C(O)C2CNC(=N)N2C2OC(CO)C(O)C(O)C2O)NC(=O)C(C(O)C2CNC(=N)N2)NC(=O)C(Cc2ccc(OC3OC(CO)C(OC4OC5COC(c6ccc(C(=O)c7ccc(I)cc7)cc6)OC5C(O)C4O)C(O)C3O)cc2)NC1=O (stereo not shown) | <0.06 µg/mL
COc1ccc(COCC2OC(OC3C(CO)OC(Oc4ccc(CC5NC(=O)C(C(C)c6ccccc6)NC(=O)CNC(=O)C(CO)NC(=O)C(C(O)C6CNC(=N)N6C6OC(CO)C(O)C(O)C6O)NC(=O)C(C(O)C6CNC(=N)N6)NC5=O)cc4)C(O)C3O)C(O)C(O)C2O)cc1OCc1ccccc1 (stereo not shown) | <0.06 µg/mL
Cc1ccc(Oc2cccc(C3OCC4OC(OC5C(CO)OC(Oc6ccc(CC7NC(=O)C(C(C)c8ccccc8)NC(=O)CNC(=O)C(CO)NC(=O)C(C(O)C8CNC(=N)N8C8OC(CO)C(O)C(O)C8O)NC(=O)C(C(O)C8CNC(=N)N8)NC7=O)cc6I)C(O)C5O)C(O)C(O)C4O3)c2)cc1 (stereo not shown) | 4 µg/mL
CC(c1ccccc1)C1NC(=O)CNC(=O)C(CO)NC(=O)C(C(O)C2CNC(=N)N2C2OC(CO)C(O)C(O)C2O)NC(=O)C(C(O)C2CNC(=N)N2)NC(=O)C(Cc2ccc(OC3OC(CO)C(OC4OC5COC6(CCCCCCCCCCC6)OC5C(O)C4O)C(O)C3O)cc2)NC1=O (stereo not shown) | <0.06 µg/mL
CC(c1ccccc1)C1NC(=O)CNC(=O)C(CO)NC(=O)C(C(O)C2CNC(=N)N2C2OC(CO)C(O)C(O)C2O)NC(=O)C(C(O)C2CNC(=N)N2)NC(=O)C(Cc2ccc(OC3OC(CO)C(OC4OC5COC6(CCCCCCCCCCCC6)OC5C(O)C4O)C(O)C3O)cc2)NC1=O (stereo not shown) | 0.25 µg/mL
CC(c1ccccc1)C1NC(=O)CNC(=O)C(CO)NC(=O)C(C(O)C2CNC(=N)N2C2OC(CO)C(O)C(O)C2O)NC(=O)C(C(O)C2CNC(=N)N2)NC(=O)C(Cc2ccc(OC3OC(CO)C(OC4OC(COCC=Cc5ccccc5)C(O)C(O)C4O)C(O)C3O)cc2)NC1=O (stereo not shown) | 1 µg/mL
CC(c1ccccc1)C1NC(=O)CNC(=O)C(CO)NC(=O)C(CC2CNC(=N)N2C2OC(CO)C(O)C(O)C2O)NC(=O)C(CC2CNC(=N)N2)NC(=O)C(Cc2ccc(OC3OC(CO)C(OC4OC(CO)C(O)C(OCc5ccc(OCc6ccccc6)cc5)C4O)C(O)C3O)cc2)NC1=O (stereo not shown) [Example 246b] | 32 µg/mL
